- Tested on: LNCaP
- Protocol Notes: Antiproliferative activity against human LNCAP cells expressing androgen receptor incubated with 0.6 nM of estradiol and 0.7 nM of testosterone after 48 hrs by sulforhodamine B assay
- Format: functional

>  <Compound>
CCC(=C(c1ccc(O)cc1)c1ccc(OCCN(C)C)cc1)c1ccccc1

>  <Target Or System>
LNCaP

>  <GI50>
8.32 µM

$$$$
>  <Compound>
CC1(C)C=Cc2c(ccc3c2OCC2(O)c4ccc(O)cc4OC32)O1 (racemic)

>  <Target Or System>
LNCaP

>  <GI50>
12.9 µM

$$$$
>  <Compound>
O=c1c(-c2ccc(O)cc2)coc2cc(O)cc(O)c12 [GENISTEIN]

>  <Target Or System>
LNCaP

>  <GI50>
38.9 µM

$$$$
>  <Compound>
CC1(C)C=Cc2c(ccc3c2OC[C@]2(O)c4ccc(O)cc4O[C@H]32)O1

>  <Target Or System>
LNCaP

>  <GI50>
27.5 µM

$$$$
>  <Compound>
C[C@]12CC[C@@H]3c4ccc(O)cc4C[C@@H](CCCCCCCCC[S+]([O-])CCCC(F)(F)C(F)(F)F)[C@H]3[C@@H]1CC[C@@H]2O (some centres not stated) [FULVESTRANT]

>  <Target Or System>
LNCaP

>  <GI50>
398 µM

$$$$
>  <Compound>
CC1(C)C=Cc2c(ccc3c2OC[C@@]2(O)c4ccc(O)cc4O[C@@H]32)O1 [GLYCEOLLIN I]

>  <Target Or System>
LNCaP

>  <GI50>
11.5 µM

$$$$
>  <Compound>
CC/C(=C(\c1ccccc1)c1ccc(OCCN(C)C)cc1)c1ccccc1 [TAMOXIFEN]

>  <Target Or System>
LNCaP

>  <GI50>
10 µM

$$$$

====

Measured GI50, listed per entry.
- Protocol Notes: Antiproliferative activity against estrogen receptor-deficient human NCI-ADR-RES cells incubated with 0.003 nM of estradiol and 0.01 nM of testosterone after 48 hrs by sulforhodamine B assay in presence of 5% fetal bovine serum
- Assay type: functional

>  <Molecule>
C[C@]12CC[C@@H]3c4ccc(O)cc4C[C@@H](CCCCCCCCC[S+]([O-])CCCC(F)(F)C(F)(F)F)[C@H]3[C@@H]1CC[C@@H]2O (some centres undefined) [FULVESTRANT]

>  <Units Of Measure>
µM

>  <Qual>
>

>  <GI50>
100

$$$$
>  <Molecule>
O=c1c(-c2ccc(O)cc2)coc2cc(O)cc(O)c12 [GENISTEIN]

>  <Units Of Measure>
µM

>  <Qual>
=

>  <GI50>
32.4

$$$$
>  <Molecule>
CC/C(=C(\c1ccccc1)c1ccc(OCCN(C)C)cc1)c1ccccc1 [TAMOXIFEN]

>  <Units Of Measure>
µM

>  <Qual>
=

>  <GI50>
5.75

$$$$
>  <Molecule>
CC1(C)C=Cc2c(ccc3c2OC[C@]2(O)c4ccc(O)cc4O[C@H]32)O1

>  <Units Of Measure>
µM

>  <Qual>
=

>  <GI50>
42.7

$$$$

====

- Tested on: MCF-12A
- Protocol Notes: Antiproliferative activity against estrogen receptor-deficient human MCF12A cells incubated with 0.003 nM of estradiol and 0.01 nM of testosterone after 48 hrs by sulforhodamine B assay in presence of 5% fetal bovine serum
- Type: functional

>  <Compound>
CC1(C)C=Cc2c(ccc3c2OCC2(O)c4ccc(O)cc4OC32)O1 (racemic)

>  <Target Or System>
MCF-12A

>  <GI50>
47.9 µM

$$$$
>  <Compound>
O=c1c(-c2ccc(O)cc2)coc2cc(O)cc(O)c12 [GENISTEIN]

>  <Target Or System>
MCF-12A

>  <GI50>
32.4 µM

$$$$
>  <Compound>
CCC(=C(c1ccc(O)cc1)c1ccc(OCCN(C)C)cc1)c1ccccc1

>  <Target Or System>
MCF-12A

>  <GI50>
3.31 µM

$$$$

====

Measured GI50, listed per entry.
- Protocol Notes: Antiproliferative activity against estrogen receptor-deficient human NCI-ADR-RES cells incubated with 0.003 nM of estradiol and 0.01 nM of testosterone after 48 hrs by sulforhodamine B assay in presence of 5% fetal bovine serum
- Format: functional

>  <Compound>
CC1(C)C=Cc2c(ccc3c2OC[C@@]2(O)c4ccc(O)cc4O[C@@H]32)O1

>  <GI50 / µM>
24.5

$$$$
>  <Compound>
CCC(=C(c1ccc(O)cc1)c1ccc(OCCN(C)C)cc1)c1ccccc1

>  <GI50 / µM>
4.47

$$$$
>  <Compound>
CC1(C)C=Cc2c(ccc3c2OCC2(O)c4ccc(O)cc4OC32)O1 (racemic)

>  <GI50 / µM>
41.7

$$$$

====

- Tested on: MCF-12A
- Protocol Notes: Antiproliferative activity against estrogen receptor-deficient human MCF12A cells incubated with 0.003 nM of estradiol and 0.01 nM of testosterone after 48 hrs by sulforhodamine B assay in presence of 5% fetal bovine serum
- Format: functional

>  <Compound>
C[C@]12CC[C@@H]3c4ccc(O)cc4C[C@@H](CCCCCCCCC[S+]([O-])CCCC(F)(F)C(F)(F)F)[C@H]3[C@@H]1CC[C@@H]2O (some centres undefined) [FULVESTRANT]

>  <Qual>
>

>  <GI50 (µM)>
100

$$$$
>  <Compound>
CC1(C)C=Cc2c(ccc3c2OC[C@]2(O)c4ccc(O)cc4O[C@H]32)O1

>  <Qual>
=

>  <GI50 (µM)>
38

$$$$
>  <Compound>
CC/C(=C(\c1ccccc1)c1ccc(OCCN(C)C)cc1)c1ccccc1 [TAMOXIFEN]

>  <Qual>
=

>  <GI50 (µM)>
5.75

$$$$
>  <Compound>
CC1(C)C=Cc2c(ccc3c2OC[C@@]2(O)c4ccc(O)cc4O[C@@H]32)O1 [GLYCEOLLIN I]

>  <Qual>
=

>  <GI50 (µM)>
33.1

$$$$
